Sequence of the target: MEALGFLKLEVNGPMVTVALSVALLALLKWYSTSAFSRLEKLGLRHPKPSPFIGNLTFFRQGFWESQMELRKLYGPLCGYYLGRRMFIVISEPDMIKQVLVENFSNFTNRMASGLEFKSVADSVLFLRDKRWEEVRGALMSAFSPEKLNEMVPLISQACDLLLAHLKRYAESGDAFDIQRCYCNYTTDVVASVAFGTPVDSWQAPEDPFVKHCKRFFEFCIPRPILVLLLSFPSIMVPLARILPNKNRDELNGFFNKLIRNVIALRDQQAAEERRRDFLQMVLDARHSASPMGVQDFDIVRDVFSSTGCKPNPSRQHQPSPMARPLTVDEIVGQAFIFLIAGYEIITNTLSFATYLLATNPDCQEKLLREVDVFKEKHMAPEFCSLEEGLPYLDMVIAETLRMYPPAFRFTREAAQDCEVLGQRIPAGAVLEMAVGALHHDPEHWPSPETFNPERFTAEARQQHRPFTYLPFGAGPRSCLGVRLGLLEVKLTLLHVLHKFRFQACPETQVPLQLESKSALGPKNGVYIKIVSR
IC50 for assorted molecules
Response body: numeric value in nM, unit text excluded.

## Input Data request, read-out IC50, for O=C(O)Cc1cc(CCCNS(=O)(=O)c2ccc(Cl)cc2)cc(CCc2cccnc2)c1
## Output 7

## Input Tell me the measured IC50 of COC(=O)CCc1cc(CCNS(=O)(=O)c2ccc(Cl)cc2)cc(CCc2cccnc2)c1 , please.
## Output 9

## Input # get_value(readout='IC50', item= O=C(O)CCc1ccc(CNS(=O)(=O)c2ccc(Cl)cc2)c(CCc2cccnc2)c1 )
## Output 43

## Input Find the recorded IC50 belonging to O=C(O)CCc1ccc(CCCNS(=O)(=O)c2ccc(Cl)cc2)cc1CCc1cccnc1 and report it.
## Output 26
